# Test system: MSSP (Methicillin-Susceptible Staphylococcus pseudintermedius)
# PROCEDURE_DETAILS: MIC against selected strains of MSSP
# Type: cell-based
# Design: key: MIC in μM
# MEASUREMENT_CONDITIONS: strain 78032, Table 3
RECORDED_ENDPOINT: MIC MSSP 78032
No unit in the answer, please; the number alone is enough.

The examples below pair each entry with its known result.
# SUBSTANCE, MIC MSSP 78032
measured = [
    ("9 (KWCFRVCYRGFCYRRCRD; Artificial Antimicrobial peptide) [compound 9]", 0.8),
    ("7 (KWCFRVCYRGVCYRRCRD; Artificial Antimicrobial peptide) [compound 7]", 1.6),
    ("4 (KFCFRVCYRGICYRRCRD; Artificial antimicrobial peptide) [compound 4]", 0.8),
    ("6 (KWCFRVCRRGICYRRCRD; Artificial Antimicrobial peptide) [compound 6]", 3.1),
    ("96 (KWCFRVCYGRICYRRCRD; Artificial Antimicrobial peptide) [compound 96]", 1.6),
    ("1 (KWCFRVCYRGICYRRCRD; Antimicrobial peptide) [compound 1]", 1.6),
    ("10 (KWCFRVCYRGICYHRCRD; Artificial Antimicrobial peptide) [compound 10]", 1.6),
]

Now for another entry.
Request: Given the entry 2 (RWCFRVCYRGICYRRCRD; Artificial antimicrobial peptide) [compound 2] , report its measured MIC MSSP 78032.
Response: 1.6

* * *

Below: a set of entries, each annotated with reported EC 25922.
# System: E. coli ATCC 25922
# Format: cell-based
# MEASUREMENT_CONDITIONS: E. coli 25922, Table 6
Give the value in µM but do not write µM after it.

Request: Given the entry 98 (KWCVRVCYRGICYRRCRD; Artificial Antimicrobial peptide) [compound 98] , report its measured EC 25922.
Response: 1.6

Request: Also need 29 (PKWCFRVCYRGICYRRCRD; Artificial Antimicrobial peptide) [compound 29] , thanks.
Response: 1.6

Request: Also need 28 (PKWCFRVCYRGICYRRCR; Artificial Antimicrobial peptide) [compound 28] , thanks.
Response: 0.8

Request: Also need 115 (GWCFRVCYRGICYRRCND; Artificial Antimicrobial peptide) [compound 115] , thanks.
Response: 0.8

Request: Also need 31 (PWCFRVCYRGICYRRCRD; Artificial Antimicrobial peptide) [compound 31] , thanks.
Response: 1.6

Request: Also need 117 (GWCFYVCYRGICYRRCRD; Artificial Antimicrobial peptide) [compound 117] , thanks.
Response: 0.8

Request: Also need 97 (KRCFRVCYRGICYRRCRD; Artificial Antimicrobial peptide) [compound 97] , thanks.
Response: 3.1

* * *

# Test system: MRSP (Methicillin-Resistant Staphylococcus pseudintermedius)
# PROCEDURE_DETAILS: MIC against selected strains of MRSP
# Format: cell-based
# Design: key: MIC in μM (visual, first well with no growth)
# MEASUREMENT_CONDITIONS: MRSP strain 72035, Table 6
Below: a set of entries, each annotated with reported MR 72035.
No unit in the answer, please; the number alone is enough.

Request: Given the entry 116 (KWCFYVCYRGICYRRCND; Artificial Antimicrobial peptide) [compound 116] , report its measured MR 72035.
Response: 1.6

Request: Also need 113 (KWCFRVCYRGICYRRCAD; Artificial Antimicrobial peptide) [compound 113] , thanks.
Response: 1.6

Request: Also need 114 (KWCFRVCYRGICYRRCRR; Artificial Antimicrobial peptide) [compound 114] , thanks.
Response: 3.1

Request: Also need 29 (PKWCFRVCYRGICYRRCRD; Artificial Antimicrobial peptide) [compound 29] , thanks.
Response: 1.6

Request: Also need 103 (KWCFRVCKRGICYRRCRD; Artificial Antimicrobial peptide) [compound 103] , thanks.
Response: 3.1

Request: Also need 108 (KWCFRVCYGGICYRRCRD; Artificial Antimicrobial peptide) [compound 108] , thanks.
Response: 3.1

Request: Also need 117 (GWCFYVCYRGICYRRCRD; Artificial Antimicrobial peptide) [compound 117] , thanks.
Response: 1.6

Request: Also need 100 (KWCFWVCYRGICYRRCRD; Artificial Antimicrobial peptide) [compound 100] , thanks.
Response: 3.1

Request: Also need 28 (PKWCFRVCYRGICYRRCR; Artificial Antimicrobial peptide) [compound 28] , thanks.
Response: 3.1

Request: Also need 107 (KWCFRVCWRGICYRRCRD; Artificial Antimicrobial peptide) [compound 107] , thanks.
Response: 3.1

Request: Also need 109 (KWCFRVCYRRICYRRCRD; Artificial Antimicrobial peptide) [compound 109] , thanks.
Response: 1.6

Request: Also need 97 (KRCFRVCYRGICYRRCRD; Artificial Antimicrobial peptide) [compound 97] , thanks.
Response: 3.1

* * *

# Tested on: MSSP (Methicillin-Susceptible Staphylococcus pseudintermedius)
# PROCEDURE_DETAILS: MIC against selected strains of MSSP
# Format: cell-based
# Design: unit: µM
# MEASUREMENT_CONDITIONS: strain 77378, Table 5
# Description: Peptides according to SEQ ID NOs as listed in Table 1 were prepared by a commercial manufacturer (CS Bio, Menlo Park, Calif.) using solid phase synthesis. Antimicrobial activity was assessed by determining the Minimal Inhibitory Concentration (MIC) against S. aureus and E. coli. Briefly, Microbroth MICs were performed using CLSI methodology (VET01-S2). […] The MIC was determined visually at the first well of no visible growth at the corresponding concentration. […]
Below: a set of entries, each annotated with reported Effect on MSSP 77378.
No unit in the answer, please; the number alone is enough.

# SUBSTANCE, Effect on MSSP 77378
data = [
    ("104 (KWCFRVCYFGICYRRCRD; Artificial Antimicrobial peptide) [compound 104]", 1.6),
    ("103 (KWCFRVCKRGICYRRCRD; Artificial Antimicrobial peptide) [compound 103]", 3.1),
    ("97 (KRCFRVCYRGICYRRCRD; Artificial Antimicrobial peptide) [compound 97]", 1.6),
]

Request: Given the entry 113 (KWCFRVCYRGICYRRCAD; Artificial Antimicrobial peptide) [compound 113] , report its measured Effect on MSSP 77378.
Response: 1.6

* * *

# System: cRBC
# Assay type: cell-based, canine
RECORDED_ENDPOINT: cRBC (50 μM)
No unit in the answer, please; the number alone is enough.

The examples below pair each entry with its known result.
# SUBSTANCE, EXPERIMENTAL_SYSTEM, cRBC (50 μM)
data = [
    ("28 (PKWCFRVCYRGICYRRCR; Artificial Antimicrobial peptide) [compound 28]", "cRBC", 94.4),
    ("1 (KWCFRVCYRGICYRRCRD; Antimicrobial peptide) [compound 1]", "cRBC", 20.5),
    ("109 (KWCFRVCYRRICYRRCRD; Artificial Antimicrobial peptide) [compound 109]", "cRBC", 99.8),
    ("8 (KWCFRVCYRGACYRRCRD; Artificial Antimicrobial peptide) [compound 8]", "cRBC", 30.2),
]

Request: Given the entry 30 (PWCFRVCYRGICYRRCR; Artificial Antimicrobial peptide) [compound 30] , report its measured cRBC (50 μM).
Response: 63.5

Request: Also need 105 (KWCFRVCYRGICYRRCRN; Artificial Antimicrobial peptide) [compound 105] , thanks.
Response: 97.9

Request: Also need 108 (KWCFRVCYGGICYRRCRD; Artificial Antimicrobial peptide) [compound 108] , thanks.
Response: 27.7

Request: Also need 104 (KWCFRVCYFGICYRRCRD; Artificial Antimicrobial peptide) [compound 104] , thanks.
Response: 100.6

* * *

Below: a set of entries, each annotated with reported MIC MSSP 76986.
# Test system: MSSP (Methicillin-Susceptible Staphylococcus pseudintermedius)
# PROCEDURE_DETAILS: MIC against selected strains of MSSP
# Assay type: cell-based
# Parameters: key: MIC in μM (first well with no visible growth)
# MEASUREMENT_CONDITIONS: strain 76986, Table 3
No unit in the answer, please; the number alone is enough.

Request: Query the reported MIC MSSP 76986 for MSSP (Methicillin-Susceptible Staphylococcus pseudintermedius); item: 5 (KWCFYVCYRGICYRRCRD; Artificial Antimicrobial peptide) [compound 5]
Response: 1.6

Request: Also need 8 (KWCFRVCYRGACYRRCRD; Artificial Antimicrobial peptide) [compound 8] , thanks.
Response: 1.6

Request: Also need 96 (KWCFRVCYGRICYRRCRD; Artificial Antimicrobial peptide) [compound 96] , thanks.
Response: 1.6

Request: Also need 4 (KFCFRVCYRGICYRRCRD; Artificial antimicrobial peptide) [compound 4] , thanks.
Response: 0.8

* * *

# Test system: MRSP (Methicillin-Resistant Staphylococcus pseudintermedius)
# PROCEDURE_DETAILS: MIC against selected strains of MRSP
# Type: cell-based
# Parameters: key: MIC in μM (visual, first well with no growth)
# MEASUREMENT_CONDITIONS: MRSP strain 72192, Table 6
RECORDED_ENDPOINT: MR 72192
No unit in the answer, please; the number alone is enough.

The examples below pair each entry with its known result.
# SUBSTANCE, RECORDED_ENDPOINT, MEASUREMENT
data = [
    ("31 (PWCFRVCYRGICYRRCRD; Artificial Antimicrobial peptide) [compound 31]", "MR 72192", 1.6),
    ("112 (KWCFRVCYRGICYRRCKD; Artificial Antimicrobial peptide) [compound 112]", "MR 72192", 1.6),
    ("117 (GWCFYVCYRGICYRRCRD; Artificial Antimicrobial peptide) [compound 117]", "MR 72192", 0.8),
    ("116 (KWCFYVCYRGICYRRCND; Artificial Antimicrobial peptide) [compound 116]", "MR 72192", 1.6),
    ("106 (KWCWRVCYRGICYRRCRD; Artificial Antimicrobial peptide) [compound 106]", "MR 72192", 1.6),
    ("107 (KWCFRVCWRGICYRRCRD; Artificial Antimicrobial peptide) [compound 107]", "MR 72192", 1.6),
    ("100 (KWCFWVCYRGICYRRCRD; Artificial Antimicrobial peptide) [compound 100]", "MR 72192", 1.6),
    ("114 (KWCFRVCYRGICYRRCRR; Artificial Antimicrobial peptide) [compound 114]", "MR 72192", 3.1),
]

Request: Given the entry 99 (KWCFFVCYRGICYRRCRD; Artificial Antimicrobial peptide) [compound 99] , report its measured MR 72192.
Response: 3.1

Request: Also need 104 (KWCFRVCYFGICYRRCRD; Artificial Antimicrobial peptide) [compound 104] , thanks.
Response: 1.6

Request: Also need 103 (KWCFRVCKRGICYRRCRD; Artificial Antimicrobial peptide) [compound 103] , thanks.
Response: 3.1

Request: Also need 30 (PWCFRVCYRGICYRRCR; Artificial Antimicrobial peptide) [compound 30] , thanks.
Response: 0.8

Request: Also need 105 (KWCFRVCYRGICYRRCRN; Artificial Antimicrobial peptide) [compound 105] , thanks.
Response: 1.6

Request: Also need 115 (GWCFRVCYRGICYRRCND; Artificial Antimicrobial peptide) [compound 115] , thanks.
Response: 1.6

Request: Also need 28 (PKWCFRVCYRGICYRRCR; Artificial Antimicrobial peptide) [compound 28] , thanks.
Response: 3.1

Request: Also need 98 (KWCVRVCYRGICYRRCRD; Artificial Antimicrobial peptide) [compound 98] , thanks.
Response: 1.6

Request: Also need 108 (KWCFRVCYGGICYRRCRD; Artificial Antimicrobial peptide) [compound 108] , thanks.
Response: 3.1

Request: Also need 110 (KWCFRVCYRGYCYRRCRD; Artificial Antimicrobial peptide) [compound 110] , thanks.
Response: 3.1

Request: Also need 29 (PKWCFRVCYRGICYRRCRD; Artificial Antimicrobial peptide) [compound 29] , thanks.
Response: 0.8

Request: Also need 113 (KWCFRVCYRGICYRRCAD; Artificial Antimicrobial peptide) [compound 113] , thanks.
Response: 1.6
